# System: OVCAR-3 ovarian
# method: NCI-60 one-dose screen, 48 h (100 = growth as untreated, 0 = no growth, -100 = all killed)
# test-settings: 10 µM unless noted
Compounds without any hit were thinned out: in the full panel of roughly 83,000, 20% have a hit.
Mark yes (1) for growth under 10%, no (0) if at or over.

Solved cases below.
molecule	label
Oc1ccc(/C=C/c2ccc(O)cc2)cc1	no (0)
C/C=C(/C)n1cnc2c(Nc3ccccn3)nc(Cl)nc21	no (0)
Cc1ccc(C(=O)c2ccc(CC(=O)NN3C(=O)c4ccccc4C3=O)n2C)cc1	no (0)
CC1(C)[C@@H](O[C@@H]2OC[C@@H](O[C@@H]3O[C@H](CO)[C@@H](O)[C@H](O)[C@H]3O[C@@H]3OC[C@@H](O)[C@H](O)[C@H]3O)[C@H](O)[C@H]2O[C@@H]2O[C@H](CO)[C@@H](O)[C@H](O)[C@H]2O)CC[C@]2(C)[C@H]3CC[C@]45OC[C@@]6(CC[C@](C)(C=O)C[C@H]64)[C@H](O)C[C@@]5(C)[C@]3(C)CC[C@@H]12	yes (1)

Shift focus to the following entry.
Quick check: does COc1ccc(C2=NN(C(C)=O)C(c3cn(-c4ccccc4)nc3-c3ccc(Cl)cc3)C2)cc1 (configuration not stated) have growth under 10%?
yes (1)
